// data source = patent US20090311217A1

Target: human TOR (Homo sapiens, UniProt P42345)
Construct: FLAG
Assay: mTOR enzyme assay (DELFIA, His6-S6K substrate)
Assay type: biochemical
Settings: read-out: mTOR Kinase Avg. IC50
Catalogue of compounds with associated IC50

Past entries and their recorded results:
Ask: Tell me the measured IC50 of COc1ccc2c(c1)c(C=C1Oc3cc(O)cc(O)c3C1=O)c(C)n2CCCN1CCOCC1 [Example 102] , please.
Result: < 25 nM

Ask: Tell me the measured IC50 of Cn1cc(/C=C2\Oc3cc(O)cc(O)c3C2=O)c2c(-c3ccsc3)cccc21 [Example 374] , please.
Result: 110 nM

Ask: Tell me the measured IC50 of COc1cc(F)c2[nH]c(-c3c(C)nn(C)c3C)c(/C=C3\Oc4ccc(NC(=O)Nc5ccc(C(=O)N6CCOCC6)cc5)cc4C3=O)c2c1 [Compound 731] , please.
Result: 3 nM

Consider the additional compound presented here.
Ask: Tell me the measured IC50 of O=C1/C(=C/c2c(-c3ccc(F)cc3)[nH]c3ccccc23)Oc2cc(O)cc(O)c21 [Example 46] , please.
Result: 123 nM

* * *

Molecular target: PI3K-beta (Homo sapiens, UniProt P42338)
Sequence (P42338 whole entry, species assumed): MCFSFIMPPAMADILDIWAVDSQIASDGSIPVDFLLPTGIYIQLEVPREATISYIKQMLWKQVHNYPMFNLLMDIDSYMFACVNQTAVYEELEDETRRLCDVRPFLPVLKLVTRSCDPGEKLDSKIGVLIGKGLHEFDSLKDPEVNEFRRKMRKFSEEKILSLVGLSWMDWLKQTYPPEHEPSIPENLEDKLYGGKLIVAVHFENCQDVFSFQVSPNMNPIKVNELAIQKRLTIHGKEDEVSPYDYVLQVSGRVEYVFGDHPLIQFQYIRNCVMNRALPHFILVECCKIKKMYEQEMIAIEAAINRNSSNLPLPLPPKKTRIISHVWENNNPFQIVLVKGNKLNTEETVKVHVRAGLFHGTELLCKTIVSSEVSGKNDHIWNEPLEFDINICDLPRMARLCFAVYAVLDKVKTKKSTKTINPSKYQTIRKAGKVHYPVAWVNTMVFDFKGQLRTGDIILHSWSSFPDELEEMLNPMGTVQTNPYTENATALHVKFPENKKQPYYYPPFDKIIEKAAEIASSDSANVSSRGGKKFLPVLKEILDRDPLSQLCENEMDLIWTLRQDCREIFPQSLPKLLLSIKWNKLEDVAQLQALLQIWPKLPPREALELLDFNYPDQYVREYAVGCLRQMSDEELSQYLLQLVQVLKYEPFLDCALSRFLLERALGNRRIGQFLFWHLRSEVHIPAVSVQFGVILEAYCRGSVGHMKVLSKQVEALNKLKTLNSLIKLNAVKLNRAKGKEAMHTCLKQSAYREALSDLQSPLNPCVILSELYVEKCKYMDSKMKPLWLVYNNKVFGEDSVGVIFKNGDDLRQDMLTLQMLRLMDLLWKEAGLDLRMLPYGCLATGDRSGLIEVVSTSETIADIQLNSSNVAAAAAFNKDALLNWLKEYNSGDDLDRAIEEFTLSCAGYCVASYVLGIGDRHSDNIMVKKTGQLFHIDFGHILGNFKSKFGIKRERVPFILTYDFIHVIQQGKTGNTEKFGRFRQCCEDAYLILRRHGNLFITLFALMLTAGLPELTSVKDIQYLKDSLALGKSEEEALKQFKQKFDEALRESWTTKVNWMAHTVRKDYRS
Sequence (P27986 whole entry partner, species assumed): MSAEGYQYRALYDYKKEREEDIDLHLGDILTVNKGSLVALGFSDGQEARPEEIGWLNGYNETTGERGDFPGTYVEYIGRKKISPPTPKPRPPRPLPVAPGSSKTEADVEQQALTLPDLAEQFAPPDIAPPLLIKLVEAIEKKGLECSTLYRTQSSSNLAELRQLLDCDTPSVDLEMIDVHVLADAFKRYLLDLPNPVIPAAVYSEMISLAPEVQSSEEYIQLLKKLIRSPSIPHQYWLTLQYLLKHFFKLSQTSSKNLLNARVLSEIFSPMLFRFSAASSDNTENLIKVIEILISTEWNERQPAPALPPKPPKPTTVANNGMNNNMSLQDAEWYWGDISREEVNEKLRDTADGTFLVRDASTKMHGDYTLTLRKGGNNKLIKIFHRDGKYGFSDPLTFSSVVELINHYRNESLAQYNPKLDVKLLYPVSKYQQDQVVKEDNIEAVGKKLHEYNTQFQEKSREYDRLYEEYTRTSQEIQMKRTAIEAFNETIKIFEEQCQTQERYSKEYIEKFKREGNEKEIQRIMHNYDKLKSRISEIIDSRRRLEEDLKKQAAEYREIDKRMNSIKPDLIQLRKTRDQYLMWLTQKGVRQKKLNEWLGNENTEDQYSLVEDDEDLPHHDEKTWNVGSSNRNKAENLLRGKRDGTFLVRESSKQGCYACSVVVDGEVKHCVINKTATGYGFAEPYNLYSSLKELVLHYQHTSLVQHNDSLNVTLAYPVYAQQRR
IC50 under 20 nM gets 1, anything at or over 20 nM gets 0.

Ask: Hi there! Is IC50 for COc1ccc2c(c1)c(/C=C1\Oc3cc(O)ccc3C1=O)c(C1CC1)n2CCn1cccn1 [Example 355] below 20 nM, do you know?
Result: 1

Ask: Hi there! Is IC50 for COc1ccc2[nH]c(C)c(C=C3Oc4cc(O)cc(O)c4C3=O)c2c1 [Example 73] below 20 nM, do you know?
Result: 1

Ask: Hi there! Is IC50 for COc1ccc2c(c1)c(C=C1Oc3cc(O)cc(O)c3C1=O)cn2CCCN1CCN(CCO)CC1 [Example 113] below 20 nM, do you know?
Result: 0

Ask: Hi there! Is IC50 for COc1ccc2c(c1)c(C=C1Oc3cc(O)cc(O)c3C1=O)c(C)n2CCCCCl [Example 87] below 20 nM, do you know?
Result: 0

Ask: Hi there! Is IC50 for CCn1c(C)c(/C=C2\Oc3ccc(NC(=O)Nc4ccc(C(=O)N(C)CCN(C)C)cc4)cc3C2=O)c2cc(OC)ccc21 [Compound 639] below 20 nM, do you know?
Result: 1

Ask: Hi there! Is IC50 for COc1ccc2c(c1)c(C=C1Oc3cc(O)cc(O)c3C1=O)c(C)n2CCCCN1CCC(N(C)C)C1 (stereo not shown) [Example 99] below 20 nM, do you know?
Result: 1

Ask: Hi there! Is IC50 for COc1ccc2c(c1)c(/C=C1\Oc3cc(O)cc(O)c3C1=O)c(C(F)(F)F)n2CCN1CCN(C)CC1 [Example 336] below 20 nM, do you know?
Result: 1

Ask: Hi there! Is IC50 for O=C1/C(=C/c2c(-c3ccc(Cl)cc3)[nH]c3ccccc23)Oc2c1ccc(O)c2O [Example 54] below 20 nM, do you know?
Result: 0

---
Ask: Hi there! Is IC50 for COc1ccc2c(c1)c(C=C1Oc3cc(O)cc(O)c3C1=O)c(C)n2CCCCN(C)C [Example 101] below 20 nM, do you know?
Result: 1

Ask: Hi there! Is IC50 for COc1ccc2c(c1)c(C=C1Oc3cc(O)cc(O)c3C1=O)cn2C [Example 84] below 20 nM, do you know?
Result: 0

Ask: Hi there! Is IC50 for COc1ccc2c(c1)c(C=C1Oc3cc(O)cc(O)c3C1=O)c(C)n2CCCN1CCN(C)CC1 [Example 95] below 20 nM, do you know?
Result: 0

Ask: Hi there! Is IC50 for COc1ccc2c(c1)c(/C=C1\Oc3cc(O)cc(O)c3C1=O)c(C)n2CCN1CCC(O)CC1 [Example 320] below 20 nM, do you know?
Result: 0

Ask: Hi there! Is IC50 for COc1ccc2[nH]c(C(=O)O)c(/C=C3\Oc4cc(O)cc(O)c4C3=O)c2c1 [Example 339] below 20 nM, do you know?
Result: 0
